Data origin, for the record: ChEMBL document CHEMBL1140469

So I've got Ki readings for Cannabinoid receptor 2 (Homo sapiens, UniProt P34972), take a look.
Just the number please, in nM, no unit attached.

Please review the entries below; each comes with its answer.
INSERT INTO assay_data (mol, experimental_endpoint, unit_symbol, result_number) VALUES
  ('CCCCCCC(C)(C)c1ccccc1/C=C\C/C=C\C/C=C\CCCC(=O)N[C@H](C)CO', 'Ki', 'nM', 257),
  ('C[C@H](CO)NC(=O)CCC/C=C\C/C=C\CCOc1cccc(C(C)(C)CCCCN=[N+]=[N-])c1', 'Ki', 'nM', 2.52),
  ('CCCCCCC(C)(C)c1cccc(OCC/C=C\C/C=C\C/C=C\CCCC(=O)N[C@H](C)CO)c1', 'Ki', 'nM', 189),
  ('CCCCCCC(C)(C)c1ccc(OCC/C=C\C/C=C\CCCC(=O)N[C@H](C)CO)cc1', 'Ki', 'nM', 78.2),
  ('C[C@H](CO)NC(=O)CCC/C=C\C/C=C\CCOc1cccc(C(C)(C)CCCCBr)c1', 'Ki', 'nM', 7.46),
  ('CCCCCCC(C)(C)c1cccc(OCC/C=C\C/C=C\CCCC(=O)N[C@H](C)CO)c1', 'Ki', 'nM', 21.5);

API: the following record is the query input.
Query block: Give the reported Ki for C[C@H](CO)NC(=O)CCC/C=C\C/C=C\CCOc1cccc(C(C)(C)CCCCO)c1 (system: Cannabinoid receptor 2 (Homo sapiens, UniProt P34972)).
Sequence (P34972 whole entry): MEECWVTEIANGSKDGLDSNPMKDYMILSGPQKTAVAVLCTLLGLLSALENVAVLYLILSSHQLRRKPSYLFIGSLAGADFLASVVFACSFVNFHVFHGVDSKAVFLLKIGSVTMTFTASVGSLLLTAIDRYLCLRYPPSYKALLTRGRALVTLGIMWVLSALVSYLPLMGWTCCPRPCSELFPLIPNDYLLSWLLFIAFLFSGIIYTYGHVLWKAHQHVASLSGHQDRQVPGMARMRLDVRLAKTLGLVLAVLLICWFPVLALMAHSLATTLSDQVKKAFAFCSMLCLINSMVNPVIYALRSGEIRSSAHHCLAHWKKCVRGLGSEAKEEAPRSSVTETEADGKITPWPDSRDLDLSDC
Result block: 10.9
